For each entry below, report its inhibition at 30 µM value.
test system: Hepatocyte; assay: Hepatoprotective activity in ddY mouse hepatocytes assessed as inhibition of D-galactosamine-induced cytotoxicity at 30 uM after 44 hrs by MTT assay relative to control; assay type: functional
Please don't drop the unit; write it after the number.

# annotated cases, reported inhibition at 30 µM shown
COMPOUND	MEASURED_VALUE
CC1(C)C[C@@H]2[C@@H]1CC[C@@]1(C)C[C@]2(O)CC[C@@H]1O	26.7%
C=C(C)[C@@H]1CC[C@@]2(C)[C@H](O)CC[C@@](C)(O)[C@@H]2C1 [CYPERUSOL C]	28.4%
C=C(C)[C@@H]1CC[C@](C)(O)C2=C(C1)[C@](C)(O)CC2=O [CYPERUSOL A1]	9.5%
CC1(C)C[C@H]2[C@H]1[C@H]1C[C@@]1(C)[C@H](O)CC[C@]2(C)O [TRICYCLOHUMULADIOL]	22.1%
C=C1C/C=C/C(C)(C)C[C@@H](O)/C(C)=C\C[C@@H]1O	47.5%

// for each compound in input: emit inhibition at 30 µM
1. CC1=C[C@H]2[C@H](C(C)C)CC[C@](C)(O)[C@H]2C[C@H]1O
2. C=C(C)[C@@H]1CC[C@]2(C)C(=C(C)C(=O)C[C@H]2O)C1 [LIGUCYPERONOL]
3. CC(C)(O)[C@@H]1CC=C(CO)CC1

**A:**
1: 9.3%; 2: 12.6%; 3: 16.7%

---

system: Hepatocyte; assay: Hepatoprotective activity in ddY mouse hepatocytes assessed as inhibition of D-galactosamine-induced cytotoxicity at 30 uM after 44 hrs by MTT assay relative to control; format: functional
Rule: inhibition at 30 µM under 20% gives Not met, otherwise Met.

Solved entries:
COMPOUND	CLASSIFICATION
C=C(C)[C@@H]1CC[C@@H](C)[C@]2(O)CC[C@](C)(O)C(=O)[C@@H]12	Met
CC1(C)C[C@H](O)[C@]23CC[C@@H](O)[C@@](C)(CC[C@@H]12)C3	Met
C=C(C)C(CC[C@H](C)O)CC1=C(C)CCC1=O (some centres undefined)	Met
C=C(C)[C@@H]1CC[C@@H](C)[C@@]2(O)CC(=O)C(C)=C2C1	Not met
CC1=CCC(C(C)(C)O)CC1O (centres undefined)	Not met

**Q:** Quick check: does C=C(C)C(CCC(C)=O)CC1=C(C)CCC1=O (centres undefined) have inhibition at 30 µM greater than or equal to 20%?
**A:** Not met

**Q:** Quick check: does C/C1=C\CC(C)(C)[C@@H](O)[C@H]2C[C@@]2(C)[C@@H](O)CC1 have inhibition at 30 µM greater than or equal to 20%?
**A:** Met

---

test system: Hepatocyte; assay: Hepatoprotective activity in ddY mouse hepatocytes assessed as inhibition of D-galactosamine-induced cytotoxicity after 44 hrs by MTT assay relative to control; format: functional, cell-based
PROPERTY: IC50 (µM)
Answers are plain numbers, in µM.

MOLECULE	IC50 / µM
C/C1=C\CC(C)(C)[C@@H](O)[C@H]2C[C@@]2(C)[C@@H](O)CC1	70

// for each molecule in input: emit IC50
1. CC(C)(O)[C@@H]1CC=C(CO)CC1
2. COc1cc(C2Oc3cc([C@H]4Oc5cc(O)cc(O)c5C(=O)[C@@H]4O)ccc3OC2CO)ccc1O (some centres not stated) [SILIBININ]
3. C=C1C/C=C/C(C)(C)C[C@@H](O)/C(C)=C\C[C@@H]1O
4. CC1(C)C[C@@H]2[C@@H]1CC[C@@]1(C)C[C@]2(O)CC[C@@H]1O
5. CC1(C)C[C@@H]2O[C@@]2(C)CC[C@H]2O[C@]2(C)C[C@@H]2O[C@H]21

**A:**
90
41
27
100
95

**Q:** Item C=C(C)[C@@H]1CC[C@@H](C)[C@@]2(O)CC(=O)C(C)=C2C1 with Hepatocyte - IC50?
**A:** 83

Data provenance: ChEMBL document CHEMBL1151166
